These measurements were taken from patent US20120239131A1.

# Test system: IL-7
# ASSAY_DETAILS: Aortic mural gene expression, RT-PCR (TLDA)
# Format: in vivo, ApoE−/− mice
# CONDITION_SET: fold change over ApoE−/− control; aorta, 28 days Ang II infusion
QUANTITY: IL-7 expression

{"columns": ["COMPOUND", "EXPERIMENTAL_VALUE"],
 "data": [
  ["C[C@H]1c2cccc(O)c2C(=O)C2=C(O)[C@]3(O)C(=O)C(C(N)=O)=C(O)[C@@H](N(C)C)[C@@H]3[C@@H](O)[C@@H]21", "− (0 to 1 = −)"],
  ["CC(C)n1c(/C=C/C(O)CC(O)CC(=O)O)c(-c2ccc(F)cc2)c2ccccc21 (stereo not shown)", "− (0 to 1 = −)"],
  ["CCCCC1=NC2(CCCC2)C(=O)N1Cc1ccc(-c2ccccc2-c2nnn[nH]2)cc1", "− (0 to 1 = −)"]
]}

====

# Tested on: Cybb
# ASSAY_DETAILS: Aortic mural gene expression, RT-PCR (TLDA)
# Assay type: in vivo, ApoE−/− mice
# CONDITION_SET: fold change over ApoE−/− control; aorta, 28 days Ang II infusion
QUANTITY: Cybb expression

{"columns": ["COMPOUND", "EXPERIMENTAL_VALUE"],
 "data": [
  ["CCCCC1=NC2(CCCC2)C(=O)N1Cc1ccc(-c2ccccc2-c2nnn[nH]2)cc1 [Irbesartan]", "− (0 to 1 = −)"],
  ["CCCc1nc2c(C)cc(-c3nc4ccccc4n3C)cc2n1Cc1ccc(-c2ccccc2C(=O)O)cc1 [Telmisartan]", "− (0 to 1 = −)"]
]}
